For each of the molecules below, state its log10(EC50).
System: Pseudoperonospora cubensis
experiment_summary: Fungicidal activity against Pseudoperonospora cubensis infected in cucumber cv. Sagamihanjiro seedling assessed as reduction in leaf lesion after 4 days by pot test
Format: functional, organism-based
Please interpret these as log10 of EC50 where EC50 is in ppm.

molecule	assayed_target	log10(EC50)
CCc1n/c(=N\c2ccc(Cl)cc2)sn1C	Pseudoperonospora cubensis	2.55
CCOC(=O)C1CN(c2ccc(Cl)cc2)/C(=N/C(=N/C)c2ccccc2)S1 (configuration not stated)	Pseudoperonospora cubensis	1.97
CC1(C)Cn2s/c(=N/c3ccc(Cl)cc3)nc2S1	Pseudoperonospora cubensis	1.55
Cn1s/c(=N/c2ccc(C(C)(C)C)cc2)nc1-c1ccc(Cl)cc1	Pseudoperonospora cubensis	1.15

(Q) # log10(EC50) lookup, item `Cn1s/c(=N/c2ccc(Cl)cc2)nc1SCc1ccccc1`
(A) 1.66
